System: RERF-LC-KJ
Protocol summary: relative viability (nuclei count vs DMSO), 5 days (fraction); higher = more cells survive
Measurement setup: first compound 1.265 µM
Property name: relative viability
Kindly provide the number alone.

Task: I am curious: what relative viability value has been reported for O=C(O)c1ccc(-c2c[nH]c3ncc(-c4ccccc4)cc23)cc1C1CCCC1 + Cc1cc(Nc2cc(N3CCN(C)CC3)nc(Sc3ccc(NC(=O)C4CC4)cc3)n2)n[nH]1 [Tozasertib] (partner 0.1 µM) ?
Result: 0.275

Task: # lookup: relative viability of O=C(O)c1ccc(-c2c[nH]c3ncc(-c4ccccc4)cc23)cc1C1CCCC1 + CC(C)C[C@H](NC(=O)[C@H](Cc1ccccc1)NC(=O)c1cnccn1)B(O)O [Bortezomib] (partner 0.002 µM)
Result: 0.996

Task: Data request, read-out relative viability, for O=C(O)c1ccc(-c2c[nH]c3ncc(-c4ccccc4)cc23)cc1C1CCCC1 + COc1cc2c(Oc3ccc(NC(=O)C4(C(=O)Nc5ccc(F)cc5)CC4)cc3F)ccnc2cc1OCCCN1CCOCC1 [Foretinib] (partner 0.25 µM)
Result: 0.837

Task: I have this compound here, O=C(O)c1ccc(-c2c[nH]c3ncc(-c4ccccc4)cc23)cc1C1CCCC1 + CS(=O)(=O)CCNCc1ccc(-c2ccc3ncnc(Nc4ccc(OCc5cccc(F)c5)c(Cl)c4)c3c2)o1 [Lapatinib] (partner 2 µM) , and I need its recorded relative viability.
Result: 0.825

Task: # get_value(readout='relative viability', item= O=C(O)c1ccc(-c2c[nH]c3ncc(-c4ccccc4)cc23)cc1C1CCCC1 + NC(=O)Nc1cc(-c2cccc(F)c2)sc1C(=O)N[C@H]1CCCNC1 [AZD7762] (partner 0.2 µM) )
Result: 0.935
